TARGET_SYSTEM: UCHL1 (Homo sapiens (Human))
Sequence (P09936 whole entry): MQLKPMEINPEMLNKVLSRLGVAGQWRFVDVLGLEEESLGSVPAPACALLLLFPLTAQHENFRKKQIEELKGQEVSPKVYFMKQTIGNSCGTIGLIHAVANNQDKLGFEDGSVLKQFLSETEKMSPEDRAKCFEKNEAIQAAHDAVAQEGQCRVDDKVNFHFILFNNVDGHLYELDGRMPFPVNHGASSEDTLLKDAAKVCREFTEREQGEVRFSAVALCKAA
PROTOCOL_TEXT: UCHL1 biochemical IC50 assay (fluorescence polarisation)
TEST_READOUT: IC50

In [3]: df
Out[3]:
                                   compound  reported_measurement
0  N#CN1CCC(S(=O)(=O)Nc2ccc(-c3ccccc3)cc2)C1 (stereo not shown)          10 to 100 µM

====

TARGET_SYSTEM: USP30 (Homo sapiens (Human), UniProt Q70CQ3)
Sequence (Q70CQ3 57-517): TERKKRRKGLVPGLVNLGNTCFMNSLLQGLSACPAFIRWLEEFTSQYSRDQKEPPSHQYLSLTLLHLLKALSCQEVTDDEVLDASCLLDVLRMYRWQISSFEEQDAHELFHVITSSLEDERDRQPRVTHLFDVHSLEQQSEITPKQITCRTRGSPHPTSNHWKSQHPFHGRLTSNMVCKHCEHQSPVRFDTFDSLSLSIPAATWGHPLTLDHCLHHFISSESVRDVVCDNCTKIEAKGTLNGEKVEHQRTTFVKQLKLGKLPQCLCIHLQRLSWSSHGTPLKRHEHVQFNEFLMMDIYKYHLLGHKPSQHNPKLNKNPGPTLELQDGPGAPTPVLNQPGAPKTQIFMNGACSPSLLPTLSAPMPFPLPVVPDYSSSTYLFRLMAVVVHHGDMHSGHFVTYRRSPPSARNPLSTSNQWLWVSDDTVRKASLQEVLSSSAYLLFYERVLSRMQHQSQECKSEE
PROTOCOL_TEXT: USP30 biochemical IC50 assay (fluorescence polarisation)
pIC50: −log10 of the molar value.
TEST_READOUT: pIC50

>>> print(df.to_string())
                                   compound  reported_measurement
0  N#CN1CCC(S(=O)(=O)Nc2ccc(-c3ccccc3)cc2)C1 (stereo not shown) [Example 26]          6.00 to 7.00
